Some molecules, each annotated with its measured normalized growth.
experiment: chemical genetic growth profiling, strain panel (AID 1159580);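 also: tested at 20 µM; growth read once vehicle control cultures reached saturation at 30 °C; 1 = growth at the plate median or of vehicle wells; lower values mean less growth of the strain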; details: S. cerevisiae deletion strains, growth OD, locus YNL271C, strain bni1, stronger effect = lower value
Hit rate of the full screen: of about 5,500 compounds, about 2,000 (36%) were called active. Another 18% or so got no clear call; they are omitted. The list shows a part of the results.
measurement_label: normalized growth

| molecule | measurement_label | reported_measurement |
| --- | --- | --- |
| CC1(C)C2CC(=O)O[C@@]3(C)C4=CC(=O)O[C@@H](c5ccoc5)[C@]4(C)CCC3[C@@]2(C)C=C[C@H]1O (some centres not stated) | normalized growth | 0.995 |
| CCOP(=S)(OCC)SCCSCC | normalized growth | 0.994 |
| COc1c(C(=O)O)ccc2c1CCC(C)(C)O2 | normalized growth | 0.995 |
| CC12CCCC(O)(C1)C1CC(C)(C)C1CC2 (configuration not stated) | normalized growth | 0.998 |
| COS(C)(=O)=O | normalized growth | 1.02 |
| COc1ccc(/C=C/c2cc(O)cc(O[C@@H]3O[C@H](CO)[C@@H](O)[C@H](O)[C@H]3O)c2)cc1O | normalized growth | 1.03 |
| CC(=O)O[C@H]1CC[C@@]2(C)C(=CCC3C2CC[C@]2(C)C(=O)CCC32)C1 (some centres not stated) | normalized growth | 0.965 |

---

assay: chemical genetic growth profiling, strain panel (AID 1159580); settings: S. cerevisiae deletion strains, growth OD, locus YMR277W, strain FCP1, stronger effect = lower value
In all, about 5,500 compounds went through this assay and about 2,000 (36%) were called active. Not shown: some 18% with an inconclusive outcome. Some of the results follow.
Some compounds, each annotated with its measured normalized growth.

| compound | normalized growth |
| --- | --- |
| N#CC1=C(N)C(C#N)(C#N)C2(CCCCC2)C2CCCC=C12 (centres undefined) | 0.985 |
| COc1cc(N=Cc2cc(Cl)cc(Cl)c2OS(=O)(=O)c2ccc(C)cc2)c(OC)cc1Cl | 0.922 |
| COc1ccccc1C(C[N+](=O)[O-])c1c(N)n(C)c(=O)n(C)c1=O (centres undefined) | 0.956 |
| COc1cc(Cl)c(NS(=O)(=O)c2cc(Br)c(Br)s2)c(OC)c1 | 0.946 |

---

Some compounds, each annotated with its measured normalized growth.
assay: chemical genetic growth profiling, strain panel (AID 1159580);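 also: tested at 20 µM; growth read once vehicle control cultures reached saturation at 30 °C; 1 = growth at the plate median or of vehicle wells; lower values mean less growth of the strain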; conditions: S. cerevisiae deletion strains, growth OD, locus YDL074C, strain BRE1, stronger effect = lower value
The campaign covered roughly 5,500 compounds. About 2,000 (36%) were called active. About 18% were inconclusive and are not listed. This is one part of the list.
measurement_label: normalized growth

| compound | reported_measurement |
| --- | --- |
| COP(=S)(OC)Oc1ccc(SC)c(C)c1 | 1.01 |
| Oc1cc(O)cc(/C=C/c2ccccc2)c1 | 0.983 |
| COc1ccc(/C=C/c2cc(O)cc(O[C@@H]3O[C@H](CO)[C@@H](O)[C@H](O)[C@H]3O)c2)cc1O | 1.01 |
| CC(=O)O[C@H]1C[C@@H](OC(C)=O)C(C)(C)C2C[C@@H](OC(C)=O)[C@]3(C)C(CC[C@@]4(C)[C@H](c5ccoc5)C(=O)[C@H]5O[C@]543)[C@]21C (stereo not given in full) | 0.975 |
| C[C@@H]1CC2C3CCC4=CC(=O)C=C[C@]4(C)[C@@]3(F)[C@@H](O)C[C@]2(C)[C@@]1(O)C(=O)COP(=O)(O)O (stereo not given in full) | 1.02 |
| CC(=O)Oc1cc(C)c2c(c1C(OC(C)=O)OC(C)=O)Oc1c(c(C)c(OC(C)=O)c3c1C(OC(C)=O)OC3=O)OC2=O (stereo not given) | 0.998 |
| O=C(O)CCCCC1SCC2NC(=O)NC21 (stereo not given) | 1.01 |
| Nc1c(Br)cc(Br)cc1CNC1CCC(O)CC1 (stereo not given) | 1.01 |
| CC1(C)C2CC(=O)O[C@@]3(C)C4=CC(=O)O[C@@H](c5ccoc5)[C@]4(C)CCC3[C@@]2(C)C=C[C@H]1O (stereo not given in full) | 1.01 |
| NC(=O)c1cc[n+](CC2=C(C(=O)O)N3C(=O)C(NC(=O)C(c4ccccc4)S(=O)(=O)[O-])C3SC2)cc1 (stereo not given) | 1.02 |

---

Some compounds, each annotated with its measured normalized growth.
experiment: chemical genetic growth profiling, strain panel (AID 1159580);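 also: tested at 20 µM; growth read once vehicle control cultures reached saturation at 30 °C; 1 = growth at the plate median or of vehicle wells; lower values mean less growth of the strain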; conditions: S. cerevisiae deletion strains, growth OD, locus YEL003W, strain gim4, stronger effect = lower value
About 2,000 (36%) of roughly 5,500 compounds were called active. About 18% were inconclusive and are not listed. This is one part of the list.

| compound | normalized growth |
| --- | --- |
| c1cc2c(cc1[C@H]1OC[C@H]3[C@@H]1CO[C@H]3c1ccc3c(c1)OCO3)OCO2 | 0.911 (active) |
| COS(C)(=O)=O | 0.989 (inactive) |
| CC[C@@H](C(=O)[C@@H](C)[C@@H](O)[C@H](C)[C@@H]1O[C@@H]([C@@H](CC)C(=O)O)CC[C@@H]1C)[C@H]1OC2(C=C[C@@H](O)[C@]3(CC[C@@](C)([C@H]4CC[C@](O)(CC)[C@H](C)O4)O3)O2)[C@H](C)C[C@@H]1C (stereo partly drawn) | 0.885 (active) |
| COc1ccc(/C=C/C(=O)O)cc1OC | 0.981 (inactive) |
| Nc1nc(N)c2nc(CNc3ccc(C(=O)NC(CCC(=O)O)C(=O)O)cc3)cnc2n1 (stereo not drawn) | 1 (inactive) |
| Cc1ccc(C(C)C)cc2c(C)ccc1-2 | 0.998 (inactive) |
| COc1ccc(/C=C/C(=O)c2ccc(O)cc2O)cc1 | 0.333 (active) |
| CCn1cc(C(=O)O)c(=O)c2cnc(N3CCCC3)nc21 | 1.01 (inactive) |
| C[C@](N)(Cc1ccc(O)cc1)C(=O)O | 1 (inactive) |
| CC[C@]1(O)CC2CN(CCc3c([nH]c4ccccc34)[C@@](C(=O)OC)(c3cc4c(cc3OC)N(C=O)[C@H]3[C@@](O)(C(=O)OC)[C@H](OC(C)=O)[C@]5(CC)C=CCN6CC[C@]43[C@@H]65)C2)C1 (stereo partly drawn) | 0.972 (inactive) |
| COc1cc(/C=C/C(=O)O)ccc1O | 1 (inactive) |
| CC12CCCC(O)(C1)C1CC(C)(C)C1CC2 (stereo not drawn) | 0.942 (inactive) |
| CC(Cc1ccc(O)c(O)c1)(NN)C(=O)O (stereo not drawn) | 0.991 (inactive) |
| O=C(O)CCCCC1SCC2NC(=O)NC21 (stereo not drawn) | 0.984 (inactive) |
| CCCCC(CC)CN=C(N)NC(N)=NCCCCCCN=C(N)NC(N)=NCC(CC)CCCC (stereo not drawn) | 0.054 (active) |
| CN(Cc1cnc2nc(N)nc(N)c2n1)c1ccc(C(=O)NC(CCC(=O)O)C(=O)O)cc1 (stereo not drawn) | 0.967 (inactive) |
| COc1ccc(/C=C/C(=O)c2cc(O)ccc2O)cc1 | 0.133 (active) |
| CC1(C)CC2C1CCC1(C)OC1CCC2(C)O (stereo not drawn) | 1.04 (inactive) |
| CCOP(=S)(OCC)Oc1ccc2c(C)c(Cl)c(=O)oc2c1 | 0.953 (inactive) |
| CC12CCC(CC1)C(C)(C)O2 | 0.989 (inactive) |
| C=CC1=C(C)/C(=C/c2[nH]c(Cc3[nH]c(/C=C4\NC(=O)C(C)=C4C=C)c(C)c3CCC(=O)O)c(CCC(=O)O)c2C)NC1=O | 0.981 (inactive) |
| CCOC(=O)CCCCCCCCCCCCC1C=CCC1 (stereo not drawn) | 0.969 (inactive) |
| C[C@@H]1CC2C3CCC4=CC(=O)C=C[C@]4(C)[C@@]3(F)[C@@H](O)C[C@]2(C)[C@@]1(O)C(=O)COP(=O)(O)O (stereo partly drawn) | 0.98 (inactive) |

---

assay: chemical genetic growth profiling, strain panel (AID 1159580);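 also: tested at 20 µM; growth read once vehicle control cultures reached saturation at 30 °C; 1 = growth at the plate median or of vehicle wells; lower values mean less growth of the strain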; conditions: S. cerevisiae deletion strains, growth OD, locus YGR092W, strain DBF2, stronger effect = lower value
Hit rate of the full screen: of about 5,500 compounds, about 2,000 (36%) were called active. About 18% were inconclusive and are not listed. Some of the results follow.

| sample_smiles | normalized growth |
| --- | --- |
| Cc1cc(C(=O)O/N=C(/N)c2ccc([N+](=O)[O-])o2)no1 | 0.178 |
| O=S(=O)(Nc1cc(C(F)(F)F)ccc1F)c1cc(C(F)(F)F)ccc1Cl | 0.82 |
| Cc1cc(C(=O)O/N=C(/N)c2ccc(C(C)(C)C)cc2)no1 | 0.906 |
| NC(=NC(=O)c1ccc(Cl)cc1)c1cccs1 | 0.533 |
| COc1cc(N=Cc2cc(Cl)cc(Cl)c2OC(=O)c2cc(OC)c(OC)c(OC)c2)c(OC)cc1Cl | 0.183 |

The measurements presented in this section are drawn from PubChem BioAssay AID1159580.
